- SYSTEM: HIPK4 (human) (UniProt Q8NE63)
- Sequence (Q8NE63 whole entry, looked up): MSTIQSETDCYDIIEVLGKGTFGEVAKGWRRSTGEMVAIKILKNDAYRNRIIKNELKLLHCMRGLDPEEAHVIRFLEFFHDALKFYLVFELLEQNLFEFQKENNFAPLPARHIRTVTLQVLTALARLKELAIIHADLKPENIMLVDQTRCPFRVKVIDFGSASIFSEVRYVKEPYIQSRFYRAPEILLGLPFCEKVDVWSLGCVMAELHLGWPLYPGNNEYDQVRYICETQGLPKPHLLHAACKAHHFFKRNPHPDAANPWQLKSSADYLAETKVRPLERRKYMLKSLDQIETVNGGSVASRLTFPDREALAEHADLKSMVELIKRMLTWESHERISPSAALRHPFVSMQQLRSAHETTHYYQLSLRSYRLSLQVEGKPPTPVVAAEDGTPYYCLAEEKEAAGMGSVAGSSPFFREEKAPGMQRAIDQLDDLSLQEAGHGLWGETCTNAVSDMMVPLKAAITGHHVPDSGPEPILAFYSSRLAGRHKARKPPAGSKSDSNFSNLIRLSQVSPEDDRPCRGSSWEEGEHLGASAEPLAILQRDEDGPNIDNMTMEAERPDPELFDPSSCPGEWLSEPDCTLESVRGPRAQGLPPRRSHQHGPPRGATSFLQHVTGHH
- TEST_NAME: KINOMEscan competition binding
- TEST_PARAMETERS: compound 10.0 µM
Would you mind telling me the reported kinase still bound, per cent of control of each entry?
Please give the number followed by its unit.

Q: In one line, give reported kinase still bound, per cent of control of the entry CC(C)n1nc(-c2cc3cc(O)ccc3[nH]2)c2c(N)ncnc21 .
Result: 27%

Q: Report measured kinase still bound, per cent of control; entry is COC(=O)Nc1ccc(-c2nc(N3CCOCC3)c3cnn(C4CCN(C(=O)OC)CC4)c3n2)cc1
Result: 97%

Q: Answer with the recorded kinase still bound, per cent of control of COc1ccc(-c2ccc3c(N4CCOCC4)nc(N4C[C@@H](C)O[C@@H](C)C4)nc3n2)cc1CO only.
Result: 88%

Q: Quickly give me recorded kinase still bound, per cent of control for CCC(=O)N1CCN(c2ccc(-n3c(=O)ccc4cnc5ccc(-c6cnc7ccccc7c6)cc5c43)cc2C(F)(F)F)CC1
Result: 4.6%

----------
- SYSTEM: JAK1 JH2 pseudokinase (human)
- TEST_NAME: KINOMEscan competition binding
- TEST_PARAMETERS: compound 10.0 µM
PROPERTY_MEASURED: kinase still bound, per cent of control
A complete answer gives the number followed by the unit.

Q: Quickly give me recorded kinase still bound, per cent of control for CCC(=O)N1CCN(c2ccc(-n3c(=O)ccc4cnc5ccc(-c6cnc7ccccc7c6)cc5c43)cc2C(F)(F)F)CC1
Result: 76%

Q: Using the record for COc1ccc(-c2ccc3c(N4CCOCC4)nc(N4C[C@@H](C)O[C@@H](C)C4)nc3n2)cc1CO , state its measured kinase still bound, per cent of control.
Result: 100%

Q: Answer with the recorded kinase still bound, per cent of control of COC(=O)Nc1ccc(-c2nc(N3CCOCC3)c3cnn(C4CCN(C(=O)OC)CC4)c3n2)cc1 only.
Result: 74%

Q: Please give the documented kinase still bound, per cent of control of CC(C)n1nc(-c2cc3cc(O)ccc3[nH]2)c2c(N)ncnc21
Result: 0.2%

----------
- SYSTEM: JAK3 JH1 catalytic (human)
- TEST_NAME: KINOMEscan competition binding
- TEST_PARAMETERS: compound 10.0 µM
PROPERTY_MEASURED: kinase still bound, per cent of control
Record the result as number plus unit.

Q: Look up and report measured kinase still bound, per cent of control for this entry: COc1ccc(-c2ccc3c(N4CCOCC4)nc(N4C[C@@H](C)O[C@@H](C)C4)nc3n2)cc1CO
Result: 100%

Q: Tell us which kinase still bound, per cent of control value is on record for COC(=O)Nc1ccc(-c2nc(N3CCOCC3)c3cnn(C4CCN(C(=O)OC)CC4)c3n2)cc1
Result: 100%

Q: Tell me kinase still bound, per cent of control reported for CCC(=O)N1CCN(c2ccc(-n3c(=O)ccc4cnc5ccc(-c6cnc7ccccc7c6)cc5c43)cc2C(F)(F)F)CC1
Result: 100%

Q: Quote kinase still bound, per cent of control reported for CC(C)n1nc(-c2cc3cc(O)ccc3[nH]2)c2c(N)ncnc21 please.
Result: 0%

----------
- SYSTEM: MAPK11 (human)
- TEST_NAME: KINOMEscan competition binding
- TEST_PARAMETERS: compound 10.0 µM
PROPERTY_MEASURED: kinase still bound, per cent of control (%)
Field format: number, assumed %, no unit text.

Q: Return value of kinase still bound, per cent of control for input CCC(=O)N1CCN(c2ccc(-n3c(=O)ccc4cnc5ccc(-c6cnc7ccccc7c6)cc5c43)cc2C(F)(F)F)CC1 , no commentary.
Result: 53

Q: Provide measured kinase still bound, per cent of control value, entry: COC(=O)Nc1ccc(-c2nc(N3CCOCC3)c3cnn(C4CCN(C(=O)OC)CC4)c3n2)cc1
Result: 80

Q: For COc1ccc(-c2ccc3c(N4CCOCC4)nc(N4C[C@@H](C)O[C@@H](C)C4)nc3n2)cc1CO , write its kinase still bound, per cent of control.
Result: 98

Q: Please report the measured kinase still bound, per cent of control for CC(C)n1nc(-c2cc3cc(O)ccc3[nH]2)c2c(N)ncnc21
Result: 100

----------
- SYSTEM: PRKACA (human)
- TEST_PARAMETERS: compound 10.0 µM
PROPERTY_MEASURED: per cent of control (%)
Express the result in % but write the number alone.

Q: Report measured per cent of control; entry is COC(=O)Nc1ccc(-c2nc(N3CCOCC3)c3cnn(C4CCN(C(=O)OC)CC4)c3n2)cc1
Result: 100

Q: State its per cent of control for this compound: CCC(=O)N1CCN(c2ccc(-n3c(=O)ccc4cnc5ccc(-c6cnc7ccccc7c6)cc5c43)cc2C(F)(F)F)CC1
Result: 96

Q: Name the recorded per cent of control of the item CC(C)n1nc(-c2cc3cc(O)ccc3[nH]2)c2c(N)ncnc21 in your answer.
Result: 45

Q: Let me know recorded per cent of control for COc1ccc(-c2ccc3c(N4CCOCC4)nc(N4C[C@@H](C)O[C@@H](C)C4)nc3n2)cc1CO , thanks.
Result: 85

----------
- SYSTEM: AKT1 (human)
- TEST_NAME: KINOMEscan competition binding
- TEST_PARAMETERS: compound 10.0 µM
PROPERTY_MEASURED: kinase still bound, per cent of control (%)
Provide only the numeric value, understood in %.

Q: Quote AKT1 (human) kinase still bound, per cent of control for entry CC(C)n1nc(-c2cc3cc(O)ccc3[nH]2)c2c(N)ncnc21 .
Result: 100

Q: Using AKT1 (human) as the test system, report measured kinase still bound, per cent of control of COc1ccc(-c2ccc3c(N4CCOCC4)nc(N4C[C@@H](C)O[C@@H](C)C4)nc3n2)cc1CO .
Result: 88

Q: Report the value of kinase still bound, per cent of control obtained on AKT1 (human) for COC(=O)Nc1ccc(-c2nc(N3CCOCC3)c3cnn(C4CCN(C(=O)OC)CC4)c3n2)cc1 .
Result: 82

Q: Report kinase still bound, per cent of control under test system AKT1 (human) for CCC(=O)N1CCN(c2ccc(-n3c(=O)ccc4cnc5ccc(-c6cnc7ccccc7c6)cc5c43)cc2C(F)(F)F)CC1 .
Result: 91

----------
- SYSTEM: CSNK1E (human) (UniProt P49674)
- Sequence (P49674 whole entry, looked up): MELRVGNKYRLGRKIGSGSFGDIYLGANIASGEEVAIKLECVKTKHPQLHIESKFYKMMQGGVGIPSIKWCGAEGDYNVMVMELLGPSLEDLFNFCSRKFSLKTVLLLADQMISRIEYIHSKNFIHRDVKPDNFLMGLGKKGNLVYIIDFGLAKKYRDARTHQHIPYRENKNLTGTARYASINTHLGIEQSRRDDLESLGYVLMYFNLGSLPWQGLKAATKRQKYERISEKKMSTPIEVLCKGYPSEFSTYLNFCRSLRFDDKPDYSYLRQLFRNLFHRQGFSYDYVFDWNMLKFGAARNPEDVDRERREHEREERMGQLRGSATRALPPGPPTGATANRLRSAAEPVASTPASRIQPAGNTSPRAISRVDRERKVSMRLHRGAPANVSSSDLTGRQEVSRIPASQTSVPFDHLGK
- TEST_NAME: KINOMEscan competition binding
- TEST_PARAMETERS: compound 10.0 µM
PROPERTY_MEASURED: kinase still bound, per cent of control (%)
Write down the numeric answer in % and omit the unit.

Q: Identify the reported kinase still bound, per cent of control for the following entry. COc1ccc(-c2ccc3c(N4CCOCC4)nc(N4C[C@@H](C)O[C@@H](C)C4)nc3n2)cc1CO
Result: 87

Q: Name the recorded kinase still bound, per cent of control of the molecule listed here: CCC(=O)N1CCN(c2ccc(-n3c(=O)ccc4cnc5ccc(-c6cnc7ccccc7c6)cc5c43)cc2C(F)(F)F)CC1
Result: 59

Q: Identify measured kinase still bound, per cent of control associated with COC(=O)Nc1ccc(-c2nc(N3CCOCC3)c3cnn(C4CCN(C(=O)OC)CC4)c3n2)cc1
Result: 72

Q: State its kinase still bound, per cent of control for this molecule: CC(C)n1nc(-c2cc3cc(O)ccc3[nH]2)c2c(N)ncnc21
Result: 0.1

----------
- SYSTEM: UniProt:P30291
- Sequence (P30291 whole entry, looked up): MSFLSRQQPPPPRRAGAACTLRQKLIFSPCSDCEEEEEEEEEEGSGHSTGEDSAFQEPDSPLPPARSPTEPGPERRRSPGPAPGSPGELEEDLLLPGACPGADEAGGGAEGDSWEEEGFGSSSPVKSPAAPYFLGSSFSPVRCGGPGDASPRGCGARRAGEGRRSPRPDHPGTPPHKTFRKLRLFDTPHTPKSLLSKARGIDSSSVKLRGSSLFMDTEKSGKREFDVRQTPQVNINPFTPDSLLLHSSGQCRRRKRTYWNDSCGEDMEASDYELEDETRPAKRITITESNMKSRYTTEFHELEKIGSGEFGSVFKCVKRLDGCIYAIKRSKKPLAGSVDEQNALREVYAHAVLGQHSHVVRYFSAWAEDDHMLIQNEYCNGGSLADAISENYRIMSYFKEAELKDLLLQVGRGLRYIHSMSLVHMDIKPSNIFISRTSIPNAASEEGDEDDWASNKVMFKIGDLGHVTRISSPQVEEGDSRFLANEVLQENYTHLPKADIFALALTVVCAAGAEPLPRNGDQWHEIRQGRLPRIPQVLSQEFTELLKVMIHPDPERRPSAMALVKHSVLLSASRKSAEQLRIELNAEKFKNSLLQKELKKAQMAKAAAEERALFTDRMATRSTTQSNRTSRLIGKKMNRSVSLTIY
- TEST_NAME: KINOMEscan competition binding
- TEST_PARAMETERS: compound 10.0 µM
PROPERTY_MEASURED: kinase still bound, per cent of control (%)
Respond numerically; units are % and should not be typed.

Q: Recall the reported kinase still bound, per cent of control of COC(=O)Nc1ccc(-c2nc(N3CCOCC3)c3cnn(C4CCN(C(=O)OC)CC4)c3n2)cc1 when tested on UniProt:P30291.
Result: 100

Q: Tell me its kinase still bound, per cent of control on UniProt:P30291: COc1ccc(-c2ccc3c(N4CCOCC4)nc(N4C[C@@H](C)O[C@@H](C)C4)nc3n2)cc1CO
Result: 98

Q: Please report kinase still bound, per cent of control with UniProt:P30291 for item CCC(=O)N1CCN(c2ccc(-n3c(=O)ccc4cnc5ccc(-c6cnc7ccccc7c6)cc5c43)cc2C(F)(F)F)CC1 .
Result: 42

Q: Tell me its kinase still bound, per cent of control on UniProt:P30291: CC(C)n1nc(-c2cc3cc(O)ccc3[nH]2)c2c(N)ncnc21
Result: 72

----------
- SYSTEM: EEF2K (human) (UniProt O00418)
- Sequence (O00418 whole entry, looked up): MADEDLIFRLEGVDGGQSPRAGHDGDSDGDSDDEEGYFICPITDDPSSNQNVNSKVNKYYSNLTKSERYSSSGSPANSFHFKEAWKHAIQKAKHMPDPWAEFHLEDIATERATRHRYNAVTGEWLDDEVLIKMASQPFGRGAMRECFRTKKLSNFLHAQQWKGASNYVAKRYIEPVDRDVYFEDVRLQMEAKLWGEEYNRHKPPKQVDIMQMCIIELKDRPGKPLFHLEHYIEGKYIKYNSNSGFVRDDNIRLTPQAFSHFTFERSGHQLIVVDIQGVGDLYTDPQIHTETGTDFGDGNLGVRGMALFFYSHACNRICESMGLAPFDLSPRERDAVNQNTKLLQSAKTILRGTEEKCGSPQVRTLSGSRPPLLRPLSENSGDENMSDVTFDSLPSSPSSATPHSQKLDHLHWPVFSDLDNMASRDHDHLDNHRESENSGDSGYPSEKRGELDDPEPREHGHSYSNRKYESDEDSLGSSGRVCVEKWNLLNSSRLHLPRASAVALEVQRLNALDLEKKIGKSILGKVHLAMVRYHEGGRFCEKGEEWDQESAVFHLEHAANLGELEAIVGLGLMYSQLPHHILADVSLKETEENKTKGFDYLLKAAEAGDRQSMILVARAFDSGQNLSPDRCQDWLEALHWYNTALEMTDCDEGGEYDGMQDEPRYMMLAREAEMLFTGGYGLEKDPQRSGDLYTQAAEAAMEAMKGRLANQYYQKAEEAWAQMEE
- TEST_PARAMETERS: compound 1.0 µM
Exercise: state measured per cent of control for each of the molecules provided.
# number only, unit % dropped from output

Q: // Input: COc1ccc(-c2ccc3c(N4CCOCC4)nc(N4C[C@@H](C)O[C@@H](C)C4)nc3n2)cc1CO . Output its per cent of control only.
Result: 88

Q: Find the measured per cent of control of CCC(=O)N1CCN(c2ccc(-n3c(=O)ccc4cnc5ccc(-c6cnc7ccccc7c6)cc5c43)cc2C(F)(F)F)CC1 and report it.
Result: 118

Q: Indicate its recorded per cent of control; the molecule in question is CC(C)n1nc(-c2cc3cc(O)ccc3[nH]2)c2c(N)ncnc21
Result: 115

Q: Please report the measured per cent of control for COC(=O)Nc1ccc(-c2nc(N3CCOCC3)c3cnn(C4CCN(C(=O)OC)CC4)c3n2)cc1
Result: 97
